measurement_target: Epidermal growth factor receptor (Homo sapiens)
Sequence (P00533 whole entry, the tested form may be a part): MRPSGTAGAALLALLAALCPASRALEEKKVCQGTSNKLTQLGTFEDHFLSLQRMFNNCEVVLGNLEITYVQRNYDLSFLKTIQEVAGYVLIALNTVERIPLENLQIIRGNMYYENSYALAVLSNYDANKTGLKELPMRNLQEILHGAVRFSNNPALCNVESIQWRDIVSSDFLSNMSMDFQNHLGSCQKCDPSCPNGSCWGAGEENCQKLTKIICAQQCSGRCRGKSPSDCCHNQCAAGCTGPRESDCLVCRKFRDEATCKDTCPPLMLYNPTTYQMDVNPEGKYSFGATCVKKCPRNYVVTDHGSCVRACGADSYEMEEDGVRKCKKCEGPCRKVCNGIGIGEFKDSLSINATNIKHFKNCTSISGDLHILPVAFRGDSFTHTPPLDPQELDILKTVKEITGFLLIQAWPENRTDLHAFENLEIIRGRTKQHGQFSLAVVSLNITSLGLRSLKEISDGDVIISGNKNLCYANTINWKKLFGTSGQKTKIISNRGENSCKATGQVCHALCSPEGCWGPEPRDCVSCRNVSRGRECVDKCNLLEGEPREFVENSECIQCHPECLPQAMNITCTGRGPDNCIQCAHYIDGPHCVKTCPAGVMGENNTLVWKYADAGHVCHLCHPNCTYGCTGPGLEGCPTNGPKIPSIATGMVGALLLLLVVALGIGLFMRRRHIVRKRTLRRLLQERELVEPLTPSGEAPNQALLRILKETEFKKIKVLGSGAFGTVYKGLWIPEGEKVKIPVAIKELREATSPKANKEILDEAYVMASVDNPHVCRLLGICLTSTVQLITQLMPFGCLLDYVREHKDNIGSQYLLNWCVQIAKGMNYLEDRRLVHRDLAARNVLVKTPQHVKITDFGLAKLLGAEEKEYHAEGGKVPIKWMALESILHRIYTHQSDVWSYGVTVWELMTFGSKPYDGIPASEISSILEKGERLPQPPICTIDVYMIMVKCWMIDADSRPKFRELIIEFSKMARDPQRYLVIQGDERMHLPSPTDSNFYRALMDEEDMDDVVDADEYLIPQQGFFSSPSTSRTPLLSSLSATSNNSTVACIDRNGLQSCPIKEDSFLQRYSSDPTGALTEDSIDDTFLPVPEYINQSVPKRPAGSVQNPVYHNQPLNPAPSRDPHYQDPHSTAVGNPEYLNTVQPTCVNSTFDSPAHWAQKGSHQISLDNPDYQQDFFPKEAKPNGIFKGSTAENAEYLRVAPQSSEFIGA
assay_text: Inhibition of recombinant human GST-tagged EGFR cytoplasmic domain (668 to 1210 residues) expressed in baculovirus virus expression system after 1 hr by ELISA
measure: pIC50
Just so you know, pIC50 here is -log10 of the concentration in molar units; reply with that number alone.

[in] Tell me its pIC50 given NS(=O)(=O)c1ccc(-n2c(SCC(=O)Nc3cnc4ccccc4c3)nc3cc4ccccc4cc3c2=O)cc1 as the entry.
[out] 6.96

[in] Tell me its pIC50 given NS(=O)(=O)c1ccc(-n2c(SCC(=O)Nc3ccc([N+](=O)[O-])cc3[N+](=O)[O-])nc3cc4ccccc4cc3c2=O)cc1 as the entry.
[out] 7.22

---

Please respond with reported pIC50 for every item in the list.
measurement_target: Receptor tyrosine-protein kinase erbB-2 (Homo sapiens, UniProt P04626)
Sequence (P04626 whole entry, the tested form may be a part): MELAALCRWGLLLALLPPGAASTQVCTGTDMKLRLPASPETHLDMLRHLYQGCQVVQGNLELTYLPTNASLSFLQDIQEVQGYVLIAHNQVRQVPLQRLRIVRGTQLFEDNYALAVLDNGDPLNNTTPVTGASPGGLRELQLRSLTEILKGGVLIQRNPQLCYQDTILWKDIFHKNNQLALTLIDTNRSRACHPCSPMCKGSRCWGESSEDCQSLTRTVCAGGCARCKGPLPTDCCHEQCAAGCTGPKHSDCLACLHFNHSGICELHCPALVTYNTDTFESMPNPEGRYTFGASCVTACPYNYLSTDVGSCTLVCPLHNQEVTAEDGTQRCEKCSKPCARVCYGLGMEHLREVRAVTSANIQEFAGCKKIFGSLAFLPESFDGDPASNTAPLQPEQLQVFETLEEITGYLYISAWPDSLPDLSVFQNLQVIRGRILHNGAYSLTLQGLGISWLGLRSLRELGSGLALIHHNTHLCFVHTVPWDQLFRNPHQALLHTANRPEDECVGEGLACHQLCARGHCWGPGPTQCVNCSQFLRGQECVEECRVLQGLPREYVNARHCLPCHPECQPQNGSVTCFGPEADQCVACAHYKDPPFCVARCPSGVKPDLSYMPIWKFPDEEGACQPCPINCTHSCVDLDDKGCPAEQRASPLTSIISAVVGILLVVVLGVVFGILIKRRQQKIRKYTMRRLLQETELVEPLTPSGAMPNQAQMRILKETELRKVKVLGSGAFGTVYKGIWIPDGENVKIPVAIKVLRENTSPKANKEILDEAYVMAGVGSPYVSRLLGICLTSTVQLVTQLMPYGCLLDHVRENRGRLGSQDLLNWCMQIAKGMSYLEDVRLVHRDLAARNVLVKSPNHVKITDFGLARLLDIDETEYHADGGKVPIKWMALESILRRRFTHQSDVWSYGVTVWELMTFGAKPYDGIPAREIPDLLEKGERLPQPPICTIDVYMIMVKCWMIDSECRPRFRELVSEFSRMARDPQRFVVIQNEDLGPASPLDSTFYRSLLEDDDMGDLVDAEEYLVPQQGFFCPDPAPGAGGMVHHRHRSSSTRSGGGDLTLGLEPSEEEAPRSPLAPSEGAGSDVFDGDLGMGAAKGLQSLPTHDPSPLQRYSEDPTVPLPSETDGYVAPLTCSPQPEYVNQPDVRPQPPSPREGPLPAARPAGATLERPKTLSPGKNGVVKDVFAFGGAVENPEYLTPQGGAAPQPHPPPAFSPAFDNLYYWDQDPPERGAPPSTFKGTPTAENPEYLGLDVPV
assay_text: Inhibition of recombinant human His-tagged HER2 cytoplasmic domain (676 to 1255 residues) expressed in baculovirus virus expression system after 1 hr by ELISA
Just so you know, pIC50 here is -log10 of the concentration in molar units; reply with that number alone.

[in] Report value only: pIC50, Receptor tyrosine-protein kinase erbB-2 (Homo sapiens, UniProt P04626), NS(=O)(=O)c1ccc(-n2c(SCC(=O)Nc3cc(Cl)c(Cl)cc3Cl)nc3cc4ccccc4cc3c2=O)cc1
[out] 6.12

[in] Report value only: pIC50, Receptor tyrosine-protein kinase erbB-2 (Homo sapiens, UniProt P04626), NS(=O)(=O)c1ccc(-n2c(SCC(=O)Nc3ccc([N+](=O)[O-])cc3[N+](=O)[O-])nc3cc4ccccc4cc3c2=O)cc1
[out] 6.52

[in] Report value only: pIC50, Receptor tyrosine-protein kinase erbB-2 (Homo sapiens, UniProt P04626), NS(=O)(=O)c1ccc(-n2c(SCC(=O)Nc3cnc4ccccc4c3)nc3cc4ccccc4cc3c2=O)cc1
[out] 6.41
